- System: UACC-62 melanoma
- ASSAY PROTOCOL: NCI-60 one-dose screen, 48 h
- CONDITION NOTES: 10 µM unless noted
- Description: Growth inhibition of the UACC-62 human tumor cell line is measured as a screen for anti-cancer activity. Cells are grown in 96 well plates and exposed to the test compound for 48 hours. Compounds are tested at a single concentration, which is 10^-5 M for most compounds. The reported endpoint is percent growth (GI% or GIPRCNT), where numbers from 0 - 100% represent growth inhibition, and numbers from -100% - 0 represent cell death. For example, a value of 40 represents 60% growth inhibition. […]
About 83,000 compounds went through this panel and 20% of them were active in at least one assay; those are over-represented in the sample as a whole. Activity calls are given as the source filed them. The calls were made as follows: active = growth percent below 10; inactive = the rest.
I would appreciate it if you answered using one of these outcomes: 1.0 for active, 0.0 for inactive

Look over these answered cases.
MOLECULE | CLASS LABEL
Oc1c(Br)cc(Cl)cc1C(c1cc(Cl)cc(Br)c1O)C(Cl)(Cl)Cl | 0.0
CC1OC(OC2C(OC3CCC4(C)C(CCC5(C)C4CC=C4C6CC(C)(C)CCC6(CO)C(O)CC45C)C3(C)C)OC(C(=O)O)C(OC3OC(COC4OC(CO)C(O)C(O)C4O)C(O)C(O)C3O)C2O)C(O)C(O)C1O (centres undefined) | 1.0
CCOC(=O)/C(=C\c1ccc(-c2ccccc2)cc1)C(C)=O | 0.0
C[n+]1c(/C=C/c2ccc([N+](=O)[O-])cc2)ccc2ccccc21 | 0.0
O=C1c2ccccc2C(=O)c2sc(Nc3ccc(Cl)cc3)nc21 | 0.0
COC(=O)[C@@]12OC[C@]34[C@H]([C@@H](O)[C@@H]1O)[C@@]1(C)[C@H](O)C(=O)C=C(C)[C@@H]1C[C@H]3OC(=O)C(OC(C)=O)[C@@H]24 (some centres undefined) | 1.0

IN: Give the logged outcome of this assay for the following molecule: O=C(/C=C\c1cc(Br)ccc1O)/C=C/c1cc(Br)ccc1O
OUT: 1.0

IN: Give the logged outcome of this assay for the following molecule: CCC(c1cccc(O)c1)C(CC)c1cccc(O)c1 (centres undefined)
OUT: 0.0

IN: Give the logged outcome of this assay for the following molecule: N#Cc1ccc([N+](=O)[O-])o1
OUT: 0.0
